target: heterodimers of GABAB1b and GABAB2 (Homo sapiens, UniProt O75899+Q9UBS5); test: FLIPR intracellular calcium mobilization in HEK293 cells stably expressing GABAB receptor; conditions: concentration raising reaction rate from 5% with 1 μM GABA to 50%, 100 μM GABA = 100%, read-out: Potency (PAM Potency of GABAB)
Sequence (Q9UBS5 1-844 isoform Q9UBS5-2): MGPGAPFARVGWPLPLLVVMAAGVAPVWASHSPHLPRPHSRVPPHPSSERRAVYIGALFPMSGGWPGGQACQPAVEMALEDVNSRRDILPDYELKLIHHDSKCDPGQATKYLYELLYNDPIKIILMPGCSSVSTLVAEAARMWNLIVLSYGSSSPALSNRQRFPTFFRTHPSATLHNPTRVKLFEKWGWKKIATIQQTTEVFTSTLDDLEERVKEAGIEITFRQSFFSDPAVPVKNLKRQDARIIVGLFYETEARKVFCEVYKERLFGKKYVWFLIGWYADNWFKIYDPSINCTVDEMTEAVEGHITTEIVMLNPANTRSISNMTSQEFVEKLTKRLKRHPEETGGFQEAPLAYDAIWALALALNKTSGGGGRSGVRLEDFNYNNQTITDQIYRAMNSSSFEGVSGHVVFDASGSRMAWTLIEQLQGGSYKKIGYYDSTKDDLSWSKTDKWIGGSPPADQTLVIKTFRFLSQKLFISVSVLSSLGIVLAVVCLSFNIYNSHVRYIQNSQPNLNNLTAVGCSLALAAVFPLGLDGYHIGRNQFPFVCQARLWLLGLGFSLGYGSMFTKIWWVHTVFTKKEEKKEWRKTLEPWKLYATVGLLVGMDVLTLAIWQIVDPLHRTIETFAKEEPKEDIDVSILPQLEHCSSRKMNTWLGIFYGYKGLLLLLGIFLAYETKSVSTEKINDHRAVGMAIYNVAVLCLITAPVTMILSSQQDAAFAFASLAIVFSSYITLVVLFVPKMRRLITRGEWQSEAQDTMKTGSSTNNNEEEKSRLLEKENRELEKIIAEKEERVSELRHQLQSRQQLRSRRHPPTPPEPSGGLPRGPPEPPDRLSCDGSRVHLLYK
Sequence (O75899 42-941): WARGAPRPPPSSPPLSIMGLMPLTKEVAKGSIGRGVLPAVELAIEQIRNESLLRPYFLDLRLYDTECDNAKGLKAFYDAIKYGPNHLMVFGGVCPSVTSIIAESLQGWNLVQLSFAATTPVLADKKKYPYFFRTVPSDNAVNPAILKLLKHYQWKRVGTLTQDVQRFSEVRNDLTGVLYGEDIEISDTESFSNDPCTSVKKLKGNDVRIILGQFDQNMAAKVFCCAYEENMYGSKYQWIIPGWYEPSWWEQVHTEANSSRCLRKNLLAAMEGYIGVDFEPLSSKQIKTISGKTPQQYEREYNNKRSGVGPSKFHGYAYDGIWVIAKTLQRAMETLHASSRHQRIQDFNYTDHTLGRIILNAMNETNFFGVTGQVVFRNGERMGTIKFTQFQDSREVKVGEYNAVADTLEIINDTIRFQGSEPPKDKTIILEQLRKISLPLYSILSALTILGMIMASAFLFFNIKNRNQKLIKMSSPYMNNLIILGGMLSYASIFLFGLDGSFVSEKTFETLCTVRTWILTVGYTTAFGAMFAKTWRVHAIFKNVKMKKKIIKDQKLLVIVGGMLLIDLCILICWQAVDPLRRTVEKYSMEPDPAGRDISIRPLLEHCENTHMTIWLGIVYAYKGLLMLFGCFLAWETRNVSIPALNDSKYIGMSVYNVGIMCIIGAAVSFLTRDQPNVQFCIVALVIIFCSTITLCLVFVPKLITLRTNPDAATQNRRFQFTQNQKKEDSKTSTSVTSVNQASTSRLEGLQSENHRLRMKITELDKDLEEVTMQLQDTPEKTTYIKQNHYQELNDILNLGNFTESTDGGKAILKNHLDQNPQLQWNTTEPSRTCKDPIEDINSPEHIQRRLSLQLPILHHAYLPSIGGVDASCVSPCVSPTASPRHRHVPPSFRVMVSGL
Reported Metric: EC50

>  <Compound>
Cc1nc(CN2CC[C@@H](O)[C@H](O)C2)c2cc(C3CCC(C)(C)CC3)sc2n1 (single isomer, unassigned)

>  <Reading>
220 nM

$$$$
>  <Compound>
Cc1nc(CN2CCS(=O)(=O)CC2)c2cc(C3CCC(C)(C)CC3)sc2n1

>  <Reading>
59 nM

$$$$

---

Reported pEC50 values are given for each entry in this list.
Target: GABAB receptor (Mus musculus, UniProt Q80T41+Q9WV18)
Construct: a mouse brain cortex membrane (4 μg); tissue Japan SLC, Inc. (ddY mice)
Sequence (Q9WV18 20-960): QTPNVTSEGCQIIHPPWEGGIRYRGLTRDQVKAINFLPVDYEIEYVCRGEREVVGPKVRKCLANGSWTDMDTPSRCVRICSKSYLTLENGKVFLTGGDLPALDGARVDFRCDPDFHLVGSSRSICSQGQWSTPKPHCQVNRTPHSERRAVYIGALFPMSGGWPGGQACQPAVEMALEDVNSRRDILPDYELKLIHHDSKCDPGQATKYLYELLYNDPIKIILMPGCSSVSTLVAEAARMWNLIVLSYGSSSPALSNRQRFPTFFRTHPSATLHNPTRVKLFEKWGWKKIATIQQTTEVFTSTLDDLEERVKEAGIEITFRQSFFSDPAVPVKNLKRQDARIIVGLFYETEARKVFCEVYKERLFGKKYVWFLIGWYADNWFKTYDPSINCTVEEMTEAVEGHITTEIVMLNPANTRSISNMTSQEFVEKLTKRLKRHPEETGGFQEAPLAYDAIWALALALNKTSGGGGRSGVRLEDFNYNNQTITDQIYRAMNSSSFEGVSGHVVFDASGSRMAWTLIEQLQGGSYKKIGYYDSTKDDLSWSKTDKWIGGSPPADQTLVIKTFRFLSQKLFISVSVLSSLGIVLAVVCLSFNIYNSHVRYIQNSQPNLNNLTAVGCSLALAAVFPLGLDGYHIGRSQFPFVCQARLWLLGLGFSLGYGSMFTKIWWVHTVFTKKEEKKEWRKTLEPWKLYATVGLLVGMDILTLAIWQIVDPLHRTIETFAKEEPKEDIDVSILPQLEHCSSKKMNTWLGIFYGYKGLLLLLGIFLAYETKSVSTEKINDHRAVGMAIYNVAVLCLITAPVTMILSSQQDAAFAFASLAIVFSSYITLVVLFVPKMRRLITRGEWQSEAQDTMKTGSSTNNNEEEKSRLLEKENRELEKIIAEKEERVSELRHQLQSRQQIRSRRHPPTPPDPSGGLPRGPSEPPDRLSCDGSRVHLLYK
Sequence (Q80T41 41-940): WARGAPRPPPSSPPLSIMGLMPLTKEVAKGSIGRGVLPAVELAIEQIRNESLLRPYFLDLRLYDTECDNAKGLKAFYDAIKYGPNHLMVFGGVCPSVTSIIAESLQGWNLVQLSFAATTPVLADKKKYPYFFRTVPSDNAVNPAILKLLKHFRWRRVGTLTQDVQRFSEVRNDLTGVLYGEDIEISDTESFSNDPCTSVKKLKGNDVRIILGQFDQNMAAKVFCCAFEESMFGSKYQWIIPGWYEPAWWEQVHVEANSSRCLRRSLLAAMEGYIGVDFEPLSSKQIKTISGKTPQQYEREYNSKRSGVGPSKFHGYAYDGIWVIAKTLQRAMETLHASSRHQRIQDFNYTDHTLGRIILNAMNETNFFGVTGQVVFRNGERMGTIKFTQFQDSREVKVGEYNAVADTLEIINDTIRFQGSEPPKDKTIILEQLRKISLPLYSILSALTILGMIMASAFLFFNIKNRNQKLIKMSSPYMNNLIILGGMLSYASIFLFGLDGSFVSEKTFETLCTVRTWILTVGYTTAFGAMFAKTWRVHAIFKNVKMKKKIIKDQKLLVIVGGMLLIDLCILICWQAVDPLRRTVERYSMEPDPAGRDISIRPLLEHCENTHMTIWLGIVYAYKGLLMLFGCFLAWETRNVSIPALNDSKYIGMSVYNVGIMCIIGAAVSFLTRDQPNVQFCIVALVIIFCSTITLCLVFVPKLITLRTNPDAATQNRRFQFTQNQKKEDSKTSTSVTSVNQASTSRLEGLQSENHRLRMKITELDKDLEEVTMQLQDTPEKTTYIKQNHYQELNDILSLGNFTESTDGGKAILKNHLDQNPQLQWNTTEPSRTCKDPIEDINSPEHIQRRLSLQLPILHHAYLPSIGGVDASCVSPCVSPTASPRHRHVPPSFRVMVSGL
Experiment: [35S]GTPγS binding test for PAM action, mouse brain cortical membrane
Conditions: concentration raising reaction rate from 20% with 0.3 μM GABA to 50%; 100 μM GABA = 100%; mouse brain cortex membrane; read-out: Potency (PAM Potency of GABAB)
Experimental: The function of the GABAB receptor of the compound of the present invention was evaluated using a [^35S] GTPγS binding test. […] The PAM action of the GABAB receptor in the mouse brain cortex of a test drug was evaluated. […] GTPγS bound to the membrane was measured on a plate reader (TopCount, PerkinElmer, Inc.). […]
pEC50: −log10 of the molar value.

>  <Molecule>
Cc1nc(CN2CC[C@@H](O)[C@@H](O)C2)c2cc(C3CCC(C)(C)CC3)sc2n1 [Ex54]

>  <pEC50>
6.49

$$$$
>  <Molecule>
Cc1nc(CN2CCC(C)(C)CC2)c2cc(C3CCC(C)(C)CC3)sc2n1 [Ex44]

>  <pEC50>
6.57

$$$$
>  <Molecule>
Cc1nc(CN2CC[C@@H](O)[C@H](O)C2)c2cc(C3CCC(C)(C)CC3)sc2n1 [Ex5]

>  <pEC50>
6.62

$$$$
>  <Molecule>
Cc1nc(CN2CCOCC2)c2cc(C3CCC(C)(C)CC3)sc2n1 [Ex132]

>  <pEC50>
6.82

$$$$
>  <Molecule>
COC1(CO)CCN(Cc2nc(C)nc3sc(C4CCC(C)(C)CC4)cc23)CC1 [Ex46]

>  <pEC50>
6.74

$$$$

---

molecular target: GABAB receptor (Mus musculus, UniProt Q80T41+Q9WV18); construct: a mouse brain cortex membrane (4 μg); tissue Japan SLC, Inc. (ddY mice); host or cells: mouse brain cortex membrane; test: [35S]GTPγS binding test for PAM action, mouse brain cortical membrane; assay type: biochemical; settings: maximum reaction rate in presence of 0.3 μM GABA, test drug up to 30 μM; 100 μM GABA = 100%; read-out: Efficacy (PAM Efficacy of GABAB)
Where a name gives a salt, the structure may show the parent alone.

>  <Molecule>
Cc1nc(CN2CCC(F)(F)CC2)c2cc(C3CCC(C)(C)CC3)sc2n1

>  <Assayed System>
GABAB receptor (Mus musculus, UniProt Q80T41+Q9WV18)

>  <Emax (%)>
175

$$$$
>  <Molecule>
Cc1nc(CN2CCC(O)CC2(C)C)c2cc(C3CCC(C)(C)CC3)sc2n1 (stereo not shown)

>  <Assayed System>
GABAB receptor (Mus musculus, UniProt Q80T41+Q9WV18)

>  <Emax (%)>
214

$$$$
>  <Molecule>
CC(=O)N1CCN(Cc2nc(C)nc3sc(C4CCC(C)(C)CC4)cc23)C(C)(C)C1 [Ex153, hydrochloride]

>  <Assayed System>
GABAB receptor (Mus musculus, UniProt Q80T41+Q9WV18)

>  <Emax (%)>
180

$$$$
>  <Molecule>
Cc1nc(CN2CC[C@@H](O)[C@H](O)C2)c2cc(C3CCC(C)(C)CC3)sc2n1

>  <Assayed System>
GABAB receptor (Mus musculus, UniProt Q80T41+Q9WV18)

>  <Emax (%)>
176

$$$$
>  <Molecule>
Cc1nc(CN2CCC(C)(C)CC2)c2cc(C3CCC(C)(C)CC3)sc2n1

>  <Assayed System>
GABAB receptor (Mus musculus, UniProt Q80T41+Q9WV18)

>  <Emax (%)>
119

$$$$
>  <Molecule>
Cc1nc(CN2CCC[C@H](O)C2)c2cc(C3CCC(C)(C)CC3)sc2n1

>  <Assayed System>
GABAB receptor (Mus musculus, UniProt Q80T41+Q9WV18)

>  <Emax (%)>
272

$$$$
>  <Molecule>
Cc1nc(CN2CCOC[C@@H]2CO)c2cc(C3CCC(C)(C)CC3)sc2n1

>  <Assayed System>
GABAB receptor (Mus musculus, UniProt Q80T41+Q9WV18)

>  <Emax (%)>
127

$$$$
>  <Molecule>
CCC1(O)CCN(Cc2nc(C)nc3sc(C4CCC(C)(C)CC4)cc23)CC1

>  <Assayed System>
GABAB receptor (Mus musculus, UniProt Q80T41+Q9WV18)

>  <Emax (%)>
238

$$$$
>  <Molecule>
Cc1nc(CN2CCC(O)(CO)CC2)c2cc(C3CCC(C)(C)CC3)sc2n1

>  <Assayed System>
GABAB receptor (Mus musculus, UniProt Q80T41+Q9WV18)

>  <Emax (%)>
161

$$$$
>  <Molecule>
Cc1nc(CN2CCCC(C)(C)C2)c2cc(C3CCC(C)(C)CC3)sc2n1

>  <Assayed System>
GABAB receptor (Mus musculus, UniProt Q80T41+Q9WV18)

>  <Emax (%)>
134

$$$$
>  <Molecule>
Cc1nc(CN2CCC3(CC2)CC3)c2cc(C3CCC(C)(C)CC3)sc2n1

>  <Assayed System>
GABAB receptor (Mus musculus, UniProt Q80T41+Q9WV18)

>  <Emax (%)>
118

$$$$
>  <Molecule>
Cc1nc(CN2CC[C@@H](O)[C@](C)(O)C2)c2cc(C3CCC(C)(C)CC3)sc2n1

>  <Assayed System>
GABAB receptor (Mus musculus, UniProt Q80T41+Q9WV18)

>  <Emax (%)>
218

$$$$
>  <Molecule>
Cc1nc(CN2CCOC[C@H]2CO)c2cc(C3CCC(C)(C)CC3)sc2n1

>  <Assayed System>
GABAB receptor (Mus musculus, UniProt Q80T41+Q9WV18)

>  <Emax (%)>
134

$$$$
>  <Molecule>
Cc1nc(CN2CCC(CO)(CO)CC2)c2cc(C3CCC(C)(C)CC3)sc2n1

>  <Assayed System>
GABAB receptor (Mus musculus, UniProt Q80T41+Q9WV18)

>  <Emax (%)>
139

$$$$
>  <Molecule>
Cc1nc(CN2CCC(O)C(C)(C)C2)c2cc(C3CCC(C)(C)CC3)sc2n1 (stereo not shown)

>  <Assayed System>
GABAB receptor (Mus musculus, UniProt Q80T41+Q9WV18)

>  <Emax (%)>
258

$$$$
>  <Molecule>
Cc1nc(CN2CC[C@@H](O)[C@@H](O)C2)c2cc(C3CCC(C)(C)CC3)sc2n1

>  <Assayed System>
GABAB receptor (Mus musculus, UniProt Q80T41+Q9WV18)

>  <Emax (%)>
88

$$$$
>  <Molecule>
Cc1nc(CN2CCC(C(F)F)CC2)c2cc(C3CCC(C)(C)CC3)sc2n1

>  <Assayed System>
GABAB receptor (Mus musculus, UniProt Q80T41+Q9WV18)

>  <Emax (%)>
160

$$$$
>  <Molecule>
Cc1nc(CN2CCC(O)C(CO)C2)c2cc(C3CCC(C)(C)CC3)sc2n1 (stereo not shown)

>  <Assayed System>
GABAB receptor (Mus musculus, UniProt Q80T41+Q9WV18)

>  <Emax (%)>
338

$$$$
>  <Molecule>
Cc1nc(CN2CCOC(C)(C)C2)c2cc(C3CCC(C)(C)CC3)sc2n1

>  <Assayed System>
GABAB receptor (Mus musculus, UniProt Q80T41+Q9WV18)

>  <Emax (%)>
203

$$$$
>  <Molecule>
Cc1nc(CN2CCC(O)CC2)c2cc(C3CCC(C)(C)CC3)sc2n1 [Ex52, hydrochloride]

>  <Assayed System>
GABAB receptor (Mus musculus, UniProt Q80T41+Q9WV18)

>  <Emax (%)>
259

$$$$
>  <Molecule>
Cc1nc(CN2CCC(C)(O)CC2)c2cc(C3CCC(C)(C)CC3)sc2n1

>  <Assayed System>
GABAB receptor (Mus musculus, UniProt Q80T41+Q9WV18)

>  <Emax (%)>
240

$$$$
>  <Molecule>
Cc1nc(CN2C[C@@H](C)O[C@@H](C)C2)c2cc(C3CCC(C)(C)CC3)sc2n1

>  <Assayed System>
GABAB receptor (Mus musculus, UniProt Q80T41+Q9WV18)

>  <Emax (%)>
165

$$$$
>  <Molecule>
Cc1nc(CN2CC[C@@H](O)[C@@H](F)C2)c2cc(C3CCC(C)(C)CC3)sc2n1

>  <Assayed System>
GABAB receptor (Mus musculus, UniProt Q80T41+Q9WV18)

>  <Emax (%)>
182

$$$$
>  <Molecule>
Cc1nc(CN2CCS(=O)(=O)CC2)c2cc(C3CCC(C)(C)CC3)sc2n1

>  <Assayed System>
GABAB receptor (Mus musculus, UniProt Q80T41+Q9WV18)

>  <Emax (%)>
207

$$$$
>  <Molecule>
COCC1(O)CCN(Cc2nc(C)nc3sc(C4CCC(C)(C)CC4)cc23)CC1

>  <Assayed System>
GABAB receptor (Mus musculus, UniProt Q80T41+Q9WV18)

>  <Emax (%)>
222

$$$$
>  <Molecule>
Cc1nc(CN2CCOCC2)c2cc(C3CCC(C)(C)CC3)sc2n1

>  <Assayed System>
GABAB receptor (Mus musculus, UniProt Q80T41+Q9WV18)

>  <Emax (%)>
218

$$$$
>  <Molecule>
COC1(CO)CCN(Cc2nc(C)nc3sc(C4CCC(C)(C)CC4)cc23)CC1

>  <Assayed System>
GABAB receptor (Mus musculus, UniProt Q80T41+Q9WV18)

>  <Emax (%)>
188

$$$$
>  <Molecule>
Cc1nc(CN2CCS(=O)(=O)CC2)c2cc(C3CCC4(CC3)CC4)sc2n1

>  <Assayed System>
GABAB receptor (Mus musculus, UniProt Q80T41+Q9WV18)

>  <Emax (%)>
176

$$$$
